target.of.assay: Cannabinoid receptor 2 (Homo sapiens, UniProt P34972)
Sequence (P34972 whole entry): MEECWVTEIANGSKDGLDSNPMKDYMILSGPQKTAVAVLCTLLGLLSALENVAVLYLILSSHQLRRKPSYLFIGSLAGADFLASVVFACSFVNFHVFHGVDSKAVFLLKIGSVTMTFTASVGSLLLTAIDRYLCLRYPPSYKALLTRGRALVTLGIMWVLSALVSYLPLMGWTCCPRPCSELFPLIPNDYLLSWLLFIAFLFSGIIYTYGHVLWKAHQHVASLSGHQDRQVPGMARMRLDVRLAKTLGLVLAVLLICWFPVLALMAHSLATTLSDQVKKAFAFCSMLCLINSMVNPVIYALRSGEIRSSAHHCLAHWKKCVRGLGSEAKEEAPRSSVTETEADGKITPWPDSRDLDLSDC
experimental.protocol: Displacement of [3H]-WIN55212-2 from human CB2 receptor transfected in CHO-K1 cell membrane incubated for 90 mins by Liquid scintillation counter analysis
Assay type: cell membranes
reported.metric: Ki
Express the reported value numerically, then name its unit.

Lookup: Provide only the value of recorded Ki for COc1cccc2c(=O)c(C(=O)NC34CC5CC(CC(C5)C3)C4)cn(CCOCCC[18F])c12
Found: 0.9 nM

###

target.of.assay: Cannabinoid receptor 1 (Homo sapiens, UniProt P21554)
Sequence (P21554 whole entry): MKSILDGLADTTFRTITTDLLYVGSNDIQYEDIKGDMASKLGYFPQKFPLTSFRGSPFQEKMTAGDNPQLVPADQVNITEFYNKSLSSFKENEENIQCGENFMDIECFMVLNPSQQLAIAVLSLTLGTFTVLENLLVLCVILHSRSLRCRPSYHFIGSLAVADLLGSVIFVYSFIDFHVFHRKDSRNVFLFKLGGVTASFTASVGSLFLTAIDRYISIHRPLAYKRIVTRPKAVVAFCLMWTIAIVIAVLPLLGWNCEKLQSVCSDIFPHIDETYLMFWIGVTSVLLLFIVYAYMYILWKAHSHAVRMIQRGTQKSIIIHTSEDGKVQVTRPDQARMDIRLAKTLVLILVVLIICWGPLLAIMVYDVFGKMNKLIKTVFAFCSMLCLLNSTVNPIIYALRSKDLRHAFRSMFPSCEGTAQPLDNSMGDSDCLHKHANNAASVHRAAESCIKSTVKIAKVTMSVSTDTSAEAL
experimental.protocol: Displacement of [3H]-SR141716A from recombinant human CB1 receptor expressed in CHO cells membrane incubated for 90 mins
reported.metric: pKi
Convention used: pKi is expressed as -log10 of the molar concentration.

Lookup: Give measured pKi for O=C(NC12CC3CC(CC(C3)C1)C2)c1cc2cccnc2n(CCOCCF)c1=O (Cannabinoid receptor 1 (Homo sapiens, UniProt P21554)).
Found: 8.41

###

Species on record: Homo sapiens
experimental.protocol: Selectivity ratio of Ki for displacement of [3H]-SR141716A from human CB1 receptor to Ki for displacement of [3H]-WIN55212-2 from human CB2 receptor
reported.metric: Ratio Ki

Guide cases for Ratio Ki, answers given:
C[C@H]1CC[C@@H](NC(=O)c2cc3cc(-c4ccco4)cnc3n(Cc3ccccc3F)c2=O)CC1 = > 153
C[C@H]1CC[C@@H](NC(=O)c2cc3cccnc3n(CCOCCF)c2=O)CC1 = > 714
C[C@H]1CC[C@@H](NC(=O)c2cc3cc(-c4ccco4)cnc3n(CCCCF)c2=O)CC1 = > 303

Lookup: Provide only the value of recorded Ratio Ki for C[C@H]1CC[C@@H](NC(=O)c2cc3cc(-c4ccco4)cnc3n(Cc3cccc(F)c3)c2=O)CC1
Found: > 1000

Lookup: Provide only the value of recorded Ratio Ki for CC1CCC(NC(=O)c2cc3cc(Br)cnc3n(Cc3ccc(F)cc3)c2=O)CC1 (mixture of isomers)
Found: 91

Lookup: Provide only the value of recorded Ratio Ki for C[C@H]1CC[C@@H](NC(=O)c2cc3cc(-c4ccco4)cnc3n(Cc3ccc(F)cc3)c2=O)CC1
Found: > 183

Lookup: Provide only the value of recorded Ratio Ki for C[C@H]1CC[C@@H](NC(=O)c2cc3cccnc3n(CCCCF)c2=O)CC1
Found: > 167

Lookup: Provide only the value of recorded Ratio Ki for O=C(NC12CC3CC(CC(C3)C1)C2)c1cc2cccnc2n(CCCCF)c1=O
Found: > 1000

###

target.of.assay: Cannabinoid receptor 2 (Rattus norvegicus, UniProt Q9QZN9)
Sequence (Q9QZN9 whole entry): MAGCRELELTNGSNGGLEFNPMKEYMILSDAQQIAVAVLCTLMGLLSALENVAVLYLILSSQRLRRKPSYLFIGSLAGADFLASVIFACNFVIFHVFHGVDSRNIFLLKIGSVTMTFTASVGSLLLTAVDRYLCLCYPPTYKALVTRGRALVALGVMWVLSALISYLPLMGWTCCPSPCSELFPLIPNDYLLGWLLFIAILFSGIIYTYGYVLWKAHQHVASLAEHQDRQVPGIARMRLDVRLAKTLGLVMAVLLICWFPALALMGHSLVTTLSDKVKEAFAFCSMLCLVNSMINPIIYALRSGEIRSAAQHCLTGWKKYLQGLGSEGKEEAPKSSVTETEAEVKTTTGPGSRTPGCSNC
reported.metric: pIC50
Convention used: pIC50 is expressed as -log10 of the molar concentration.

Lookup: Provide only the value of recorded pIC50 for O=C(NC12CC3CC(CC(C3)C1)C2)c1cc2cccnc2n(CCCCF)c1=O
Found: 9.66
